test system: PC-3; assay: NCI tumour cell line growth inhibition, 48 h
Activity calls are given as the source filed them. No stated cut-off is given here; in the data, active = GI50 up to about 1.1 µM and inactive = higher.
measured-quantity: GI50

Examples with their reported GI50 follow.
# compound, measured-quantity, value
records = [
    ("O=c1c2cc([N+](=O)[O-])ccc2n2n1CCCC2", "GI50", "> 100 µM (inactive)"),
    ("Cc1c(-c2ccccc2)c(-c2ccc(OCCN(C)C)cc2)n2ccccc12", "GI50", "6.34 µM (inactive)"),
    ("CCC(O)(Cc1ccc(OC)cc1)c1ccc(OC)cc1 (centres undefined)", "GI50", "> 100 µM (inactive)"),
    ("C[Si](C)(c1ccccc1)[C@H]1CCCC=C1CCNC1c2ccccc2CCc2ccccc21", "GI50", "> 100 µM (inactive)"),
    ("CC[P+](C#Cc1ccccc1)(c1ccccc1)c1ccccc1", "GI50", "2.3 µM (inactive)"),
]

// query Which value of GI50 has been reported for `Nc1nc(Cl)c2ncn(Cc3ccccc3CCl)c2n1` in the records?
// result 15 µM (inactive)

// query Name the recorded GI50 for COC(=O)C1=C(OC(=O)c2ccccc2)C(C(=O)OC)[C@]2(O)[C@@H](C(=O)OC)[C@H]1C[C@@H](c1ccccc1)[C@@H]2C(=O)OC (some centres undefined) .
// result 4.82 µM (inactive)

// query Request the reported GI50 associated with CCCCOC(=O)C1CN2C=CC=NC2=NC1(C(F)(F)F)C(F)(F)F (centres undefined)
// result > 100 µM (inactive)

// query What does the data say about its GI50? Entry: C[N+]1(CCCl)CC[N+](C)(CCCl)CC1 (centres undefined)
// result > 100 µM (inactive)

Where these numbers come from: ChEMBL document CHEMBL1201862
